Tested on: CEM cells HIV-1 protection, formazan growth assay
Assay: NCI AIDS Antiviral Assay;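 active means compounds giving half or more protection of infected cells from virus-caused growth loss, again on retest; inactive means the rest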
Outcome codes: active, inactive

molecule	classification
Cc1ccc2cc(-c3ccccc3)c3ccc(C)nc3c2n1.Cc1ccc2cc(-c3ccccc3)c3ccc(C)nc3c2n1.O=C1OC(C(O)C[O-])C(O)=C1O.[Cu+]	inactive
CC1(C)CNC(=O)C(C)(C2(C)NC(C)(C)CNC2=O)N1 (configuration not stated)	inactive
CCOC(C)O[C@H]1C(=O)OCC1(C)C (some centres not stated)	inactive
CC(=O)NNC(=S)/N=C\C(C(=O)c1ccccc1)=C(/O)c1ccccc1	inactive
NC(=O)c1ncn2c(=O)n(CCCl)nnc12	inactive
CCOC(=O)CN=C1NNS(=O)(=O)c2ccccc21	inactive
O=C(N/C(=C\c1ccc([N+](=O)[O-])cc1)c1nc2ccccc2[nH]1)c1ccccc1	inactive
O=S(=O)(O)C(Cc1nc2ccccc2[nH]1)S(=O)(=O)OCCC1S(=O)(=O)OCCOS1(=O)=O (configuration not stated)	inactive
CCOC(=O)C(C)(C(=O)OCC)/C(Cl)=C\Cl	inactive
Cc1cc(NS(=O)(=O)c2ccc(NC(=O)c3ccc4nc5ccccc5c(Nc5ccc(S(=O)(=O)Nc6cc(C)on6)cc5)c4c3)cc2)no1	active
CCc1c(O)c(O)c(C(C)=O)c2c(O)c(-c3c(C)cc4c(CC)c(O)c(O)c(C(C)=O)c4c3O)c(C)cc12	inactive
COc1cc(CNc2nc3ccccc3n2Cc2ccccc2)cc(CN2CCOCC2)c1O	inactive
Cc1ccc2nc(NC(=S)SSC(=S)Nc3nc4ccc(C)cc4s3)sc2c1	inactive
Nc1nn2cc3c(nc2c1N=Nc1ccccc1)CCCCC3	inactive
CC(C)c1cc(C(C)C)c(B(c2ccccc2)c2ccccc2)c(C(C)C)c1Br	inactive
COC(=O)c1cc(C(=CCC[C@H]2CC[C@@]3(C)C(CC[C@@H]4C3CC[C@@]3(C)C4CC[C@@H]3[C@H](C)CCCC(C)C)C2)c2cc(Cl)c(OC)c(C(=O)OC)c2)cc(Cl)c1OC (some centres not stated)	inactive
Cc1ccccc1NC(=O)CC(=O)n1nc(-c2ccccc2)c(N=Nc2ccc([N+](=O)[O-])cc2)c1-c1ccccc1	inactive
Cc1cnc2sn(-c3ccc(Br)cc3)c(=O)c2c1	inactive
O=[N+]([O-])c1ccc2c(c1)Sc1ccccc1N2CCCCCl	inactive
CS(=O)(=O)OCC1OC2OC3(CCCCC3)OC2C1OCc1ccccc1 (configuration not stated)	inactive
COc1ccc2c(O)c(S(=O)(=O)c3ccc(Cl)cc3)c(=O)oc2c1	inactive
O=C1NCN(C2CCCCC2)CN1	inactive
O=C(c1cccc(OCc2ccccc2)c1OCc1ccccc1)N1CCSC1=S	inactive
Cc1c(C)n(COCCO)c2ncnc(N)c12	inactive
CC(C)(S)C(N)C(=O)O (configuration not stated)	inactive
COc1ccc(NC/C=C/C(=C/COC(C)=O)OC(C)=O)cc1	inactive
O=C(Nc1ccc(F)cc1)C(=O)C(C(=O)c1ccccc1F)C1OC(=O)c2ccccc21 (configuration not stated)	inactive
Cc1ccnc(NS(=O)(=O)c2ccc(N=Nc3cc4ccccc4c(C(=O)O)c3O)cc2)n1	inactive
Cc1cc(N(CCC#N)CCC#N)ccc1/C(N=Nc1ccc([N+](=O)[O-])cc1)=N\NC(=O)c1ccccc1	inactive
COc1c2occc2c(OC)c2c(=O)c(S(=O)(=O)NC(=O)Nc3ccc(Cl)cc3)coc12	inactive
CCOC(=O)C(NC(=O)CC)(Nc1ccccc1OC)C(F)(F)F (configuration not stated)	inactive
N=C(N)C1CN(CCCCCCCCCCN2CC(C(=N)N)C(=O)NC2=O)C(=O)NC1=O (configuration not stated)	inactive
Cc1cc(C)c2c(c1)N[S@@](=O)S2	inactive
COc1ccc(CCN2C(=O)CCC3=C2CCCC3=O)cc1OC	inactive
Cc1[nH]c(-c2ccccc2)c(O)c1C(=O)OC1CC(C)CCC1C(C)C (configuration not stated)	inactive
COc1cc(Cc2nnc(N)nc2N)cc(OC)c1OC	inactive
CSc1n[n+]2c(s1)SCCC2	inactive
CC(=O)OC12c3ccccc3C1CCCCCC21OCCCO1 (configuration not stated)	inactive
CC(C)CC(C(N)=O)C(=O)NC(Cc1ccccc1)NC(=O)CNC(=O)OC(C)(C)C (configuration not stated)	inactive
CCC(C)C(NC(=O)C(CCCC(N)=O)NC(=O)CNC(=O)C(NC(=O)C(NC(=O)C(NC(=O)C(Cc1ccccc1)NC(=O)C(C)NC(=O)C(CCCNC(=N)N)NC(=O)CNC(=O)C1CCCN1C(=O)CNC(=O)C(CCCNC(=N)N)NC(=O)C(CCCC(N)=O)NC(=O)C(NC(=O)C(CCCNC(=N)N)NC(=O)C(NC(=O)C(COC1OC(CO)C(O)C(O)C1NC(C)=O)NC(=O)C(CCCCN)NC(=O)C(CCCNC(=N)N)NC(=O)C(NC(=O)C(CC(N)=O)NC(=O)C(N)CC(N)=O)C(C)O)C(C)CC)C(C)CC)C(C)C)C(C)O)C(C)CC)C(=O)NCC(N)=O (configuration not stated)	inactive
O=C1C2=Cc3ccccc3OC2(O)Oc2ccccc21 (configuration not stated)	inactive
Cc1nc2nnc(C)n2c2c1C(=O)Nc1ccccc1N2	inactive
